Experiment: Inhibition of canine platelet-rich plasma agregation induced by ADP
Where a SMILES comes first, the peptide text is derived from it. Bridges are numbered along the chain shown (N, C = ends). [ ]: non-standard residue; d: D form. Pen = CC(C)(S)[C@H](N)C(=O)O
readout: IC50 (µM)
Only the number, expressed in µM, is required.

• CC(=O)N[C@H](CCCCNC(=N)N)C(=O)NCC(=O)N[C@@H](CC(=O)O)C(=O)N[C@@H](CO)C(N)=O = 68.2

// next item, IC50 requested
*Q* Tell us which IC50 value is on record for CC(=O)N[C@H]1CSSC(C)(C)[C@@H](C(N)=O)NC(=O)[C@H](CC(=O)O)NC(=O)[C@H](C)NC(=O)[C@H](CCCN=C(N)N)NC1=O (Ac-CRAD[Pen]-NH2; disulfide 1-5)
*A* 200
